- Test system: NCI-H1693 (Lung Adenocarcinoma);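 note: after 72 h of two-drug dosing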
- method: Bliss excess, mean over the matrix (fraction); higher = more synergy
observed_property: Bliss excess
Returns: the value as a bare number; no unit string appended.

QUERY: Can you share its Bliss excess? I mean this compound: Cn1cnc2c(F)c(Nc3ccc(Br)cc3Cl)c(C(=O)NOCCO)cc21 [Selumetinib] + C=CCn1c(=O)c2cnc(Nc3ccc(N4CCN(C)CC4)cc3)nc2n1-c1cccc(C(C)(C)O)n1 [AZD1775] (first compound max 10 µM, partner max 1 µM)
RESULT: -0.0092

QUERY: Field entry: CN(CCO)CC[C@H](CSc1ccccc1)Nc1ccc(S(=O)(=O)NC(=O)c2ccc(N3CCC([C@@H](O)c4ccccc4-c4ccc(Cl)cc4)CC3)cc2)cc1S(=O)(=O)C(F)(F)F [AZD4320] + C=CCn1c(=O)c2cnc(Nc3ccc(N4CCN(C)CC4)cc3)nc2n1-c1cccc(C(C)(C)O)n1 [AZD1775] (first compound max 1 µM, partner max 1 µM)
RESULT: -0.0047

Others:
QUERY: Can you share its Bliss excess? I mean this compound: COc1nnc2ccc(N3CCC(c4ccc(OCCN5CCN(C)C(=O)[C@H]5C)cc4)CC3)nn12 [AZD5153] + CC1(C)CCC(CN2CCN(c3ccc(C(=O)NS(=O)(=O)c4ccc(NCC5CCOCC5)c([N+](=O)[O-])c4)c(Oc4cnc5[nH]ccc5c4)c3)CC2)=C(c2ccc(Cl)cc2)C1 [Venetoclax] (first compound max 1 µM, 7x7, partner max 1 µM)
RESULT: -0.0464

====

- Tested on: ECC10 (Gastric Carcinoma)
- method: combination Emax (second highest fraction inhibited in the dose matrix, 72 h); higher = more inhibition; extreme values may be limits of the assay
Here, each record is paired with measured combination Emax data.
Returns: the value as a bare number; no unit string appended.

QUERY: Can you share its combination Emax? I mean this compound: Cc1nc(Nc2ncc(C(=O)Nc3c(C)cccc3Cl)s2)cc(N2CCN(CCO)CC2)n1 [Dasatinib] + CC(=O)Nc1cccc(-n2c(=O)n(C3CC3)c(=O)c3c(Nc4ccc(I)cc4F)n(C)c(=O)c(C)c32)c1 [Trametinib] (first compound max 2 µM, 7x7, partner max 1 µM)
RESULT: 0.856

QUERY: Field entry: COc1cc2c(cc1OCCCCCOc1cc3c(cc1OC)C(=O)N1C=C(C)C[C@H]1C=N3)N=C[C@@H]1CC(C)=CN1C2=O [SG3199] + O=C(c1cc(Cc2n[nH]c(=O)c3ccccc23)ccc1F)N1CCN(C(=O)C2CC2)CC1 [Olaparib] (first compound max 0.001 µM, 7x7, partner max 10 µM)
RESULT: 0.102

Would you kindly look at the next entry?
QUERY: Can you share its combination Emax? I mean this compound: Cc1c2c(nn1C)CSCc1cc(n(C)n1)CSc1cc(c3ccccc3c1)OCCCc1c(C(=O)O)n(C)c3c-2c(Cl)ccc13 [AZD5991] + CCN(CCO)CCCOc1ccc2c(Nc3cc(CC(=O)Nc4cccc(F)c4)[nH]n3)ncnc2c1 [AZD2811] (first compound max 1 µM, 7x7, partner max 1 µM)
RESULT: 0.957

====

- System: CCK-81 (Colorectal Carcinoma)
- method: combination Emax (second highest fraction inhibited in the dose matrix, 72 h); higher = more inhibition; extreme values may be limits of the assay
Tag: class 1 if measured combination Emax is not below 0.4, class 0 if it is.

Example results:
QUERY: Exam item: decide whether the reported combination Emax for Cn1cnc2c(F)c(Nc3ccc(Br)cc3Cl)c(C(=O)NOCCO)cc21 [Selumetinib] + C[C@@H]1COCCN1C2=NC(=NC(=C2)C3(CC3)[S@](=N)(=O)C)C4=C5C=CNC5=NC=C4 [AZD6738] (first compound max 10 µM, 7x7, partner max 10 µM) is at least 0.4.
RESULT: class 1

QUERY: Field entry: Cc1cc2ncnn2cc1Nc1ncc2c(n1)n(C1CCOCC1)c(=O)n2C [AZD7648] + CCN(CCO)CCCOc1ccc2c(Nc3cc(CC(=O)Nc4cccc(F)c4)[nH]n3)ncnc2c1 [AZD2811] (first compound max 10 µM, 7x7, partner max 1 µM)
RESULT: class 0

QUERY: Field entry: CCc1c2c(nc3ccc(O)cc13)-c1cc3c(c(=O)n1C2)COC(=O)[C@]3(O)CC [SN-38] + O=C(c1cc(Cc2n[nH]c(=O)c3ccccc23)ccc1F)N1CCN(C(=O)C2CC2)CC1 [Olaparib] (first compound max 0.3 µM, 7x7, partner max 10 µM)
RESULT: class 1

QUERY: Field entry: CC1(C)CCC(CN2CCN(c3ccc(C(=O)NS(=O)(=O)c4ccc(NCC5CCOCC5)c([N+](=O)[O-])c4)c(Oc4cnc5[nH]ccc5c4)c3)CC2)=C(c2ccc(Cl)cc2)C1 [Venetoclax] + COc1cc(Nc2ncc3c(n2)-c2ccc(Cl)cc2C(c2c(F)cccc2OC)=NC3)ccc1C(=O)O [Alisertib] (first compound max 1 µM, 7x7, partner max 10 µM)
RESULT: class 0

QUERY: Field entry: CC1(C)CCC(CN2CCN(c3ccc(C(=O)NS(=O)(=O)c4ccc(NCC5CCOCC5)c([N+](=O)[O-])c4)c(Oc4cnc5[nH]ccc5c4)c3)CC2)=C(c2ccc(Cl)cc2)C1 [Venetoclax] + C[C@@H](Nc1cc(F)cc(F)c1)c1cc(C(=O)N(C)C)cc2c(=O)cc(N3CCOCC3)oc12 [AZD8186] (first compound max 1 µM, 7x7, partner max 3 µM)
RESULT: class 0

Others:
QUERY: Exam item: decide whether the reported combination Emax for CCN(CCO)CCCOc1ccc2c(Nc3cc(CC(=O)Nc4cccc(F)c4)[nH]n3)ncnc2c1 [AZD2811] + O=C(c1cc(Cc2n[nH]c(=O)c3ccccc23)ccc1F)N1CCN(C(=O)C2CC2)CC1 [Olaparib] (first compound max 1 µM, 7x7, partner max 10 µM) is at least 0.4.
RESULT: class 0
